target: G-protein coupled receptor 55 (Homo sapiens); assay: Antagonist activity at beta-galactosidase fused human GPR55 expressed in CHO cells assessed as inhibition of LPI-induced receptor activation by measuring beta-arrestin 2 recruitment incubated for 90 mins by PathHunter chemiluminescence based assay; type: cell-based
Sequence (Q9Y2T6 whole entry, the tested form may be a part): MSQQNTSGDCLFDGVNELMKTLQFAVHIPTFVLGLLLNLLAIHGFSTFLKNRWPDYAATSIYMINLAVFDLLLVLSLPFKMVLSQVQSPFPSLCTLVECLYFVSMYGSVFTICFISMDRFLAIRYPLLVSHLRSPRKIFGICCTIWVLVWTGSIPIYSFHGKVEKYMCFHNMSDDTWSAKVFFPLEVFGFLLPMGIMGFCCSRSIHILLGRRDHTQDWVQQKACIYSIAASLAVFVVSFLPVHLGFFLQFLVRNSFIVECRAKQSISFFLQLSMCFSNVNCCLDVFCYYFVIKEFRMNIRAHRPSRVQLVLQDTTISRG
Overview of reported pIC50 across a group of compounds:
// pIC50 is dimensionless: -log10 of concentration (M)

Use these answered entries as a reference point.
Cc1nc(N2CCN(C(=O)c3ccco3)CC2)c2c3c(sc2n1)CCCC3 : 5.69
CC1(C)CCc2c(sc3nc(CCO)nc(N4CCN(C(=O)c5ccco5)CC4)c23)C1 : 4.93
Cc1nc(Nc2ccc(S(=O)(=O)Nc3onc(C)c3C)cc2)c2c3c(sc2n1)CCCC3 : 4.53
Cc1nc(N2CCN(C(=O)c3ccco3)CC2)c2c3c(sc2n1)CC(C)(C)CC3 : 6.55

Exam item: # get_value(readout='pIC50', item= "O=C(c1ccco1)N1CCN(c2ncnc3sc4c(c23)CCCC4)CC1" )
Marked response: 6.17

Exam item: Next compound: "Cc1nc(Nc2ccc(S(=O)(=O)Nc3onc(C)c3C)cc2)c2c3c(sc2n1)CC(C)(C)CC3"
Marked response: 5.47
